Target: COI1/JAZ1 co-receptor (Arabidopsis thaliana, UniProt O04197+Q9LMA8)
Construct: Full-length Arabidopsis thaliana COI1 and ASK1 were co-expressed; Full-length JAZ substrate proteins were expressed as 6×His-fusion proteins in Escherichia coli; GST (cleaved yes); 6xHis; Escherichia coli (JAZ1)
Sequence (O04197 whole entry, the tested form may be a part): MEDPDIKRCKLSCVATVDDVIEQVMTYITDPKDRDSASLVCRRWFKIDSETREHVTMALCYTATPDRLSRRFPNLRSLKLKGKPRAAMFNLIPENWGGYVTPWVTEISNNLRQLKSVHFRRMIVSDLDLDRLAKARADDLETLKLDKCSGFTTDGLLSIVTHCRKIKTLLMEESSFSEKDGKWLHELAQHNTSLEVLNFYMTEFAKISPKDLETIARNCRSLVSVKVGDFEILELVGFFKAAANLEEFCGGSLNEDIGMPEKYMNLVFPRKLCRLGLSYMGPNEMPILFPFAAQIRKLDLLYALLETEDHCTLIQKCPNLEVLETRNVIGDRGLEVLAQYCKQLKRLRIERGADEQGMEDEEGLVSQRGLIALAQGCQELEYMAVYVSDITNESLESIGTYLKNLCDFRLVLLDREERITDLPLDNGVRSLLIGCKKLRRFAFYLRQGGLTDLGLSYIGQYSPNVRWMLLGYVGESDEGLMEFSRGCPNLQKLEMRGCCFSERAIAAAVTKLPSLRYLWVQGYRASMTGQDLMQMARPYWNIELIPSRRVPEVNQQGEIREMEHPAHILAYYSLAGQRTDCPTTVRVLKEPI
Sequence (Q39255 whole entry partner, the tested form may be a part): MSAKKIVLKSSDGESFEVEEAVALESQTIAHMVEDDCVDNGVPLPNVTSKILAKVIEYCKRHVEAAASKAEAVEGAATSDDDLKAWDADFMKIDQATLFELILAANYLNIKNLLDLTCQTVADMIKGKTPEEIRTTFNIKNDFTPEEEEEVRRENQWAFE
Sequence (Q9LMA8 whole entry, the tested form may be a part): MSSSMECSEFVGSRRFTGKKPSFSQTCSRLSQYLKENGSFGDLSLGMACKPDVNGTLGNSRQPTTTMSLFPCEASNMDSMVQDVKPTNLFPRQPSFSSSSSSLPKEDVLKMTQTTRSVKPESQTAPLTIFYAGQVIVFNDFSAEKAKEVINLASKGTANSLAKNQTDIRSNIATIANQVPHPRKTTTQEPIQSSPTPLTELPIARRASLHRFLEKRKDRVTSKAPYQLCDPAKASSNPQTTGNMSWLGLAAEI
Assay: Ligand-binding based reconstitution assay (inositol phosphate rescue) with dialyzed COI1/ASK1 and JAZ1
Conditions: 100 nM 3H-coronatine, read-out: EC50, rescue of 3H-coronatine binding to dialyzed COI1/ASK1 in the presence of JAZ1
Outcome measure: pEC50
Scale explanation: pEC50 corresponds to minus log10 of a concentration expressed in moles per litre.

(Q) Would you mind telling me what pEC50 value was observed for O=P(O)(O)OC1C(O)C(OP(=O)(O)O)C(OP(=O)(O)O)C(OP(=O)(O)O)C1OP(=O)(O)O (stereo not shown) [Ins(1,2,4,5,6)P5, inositol-1,2,4,5,6-pentakisphosphate] ?
(A) 7.57

Source: patent US9297017B2
